Reported one-hybrid fitness for binding NBS DNA is given for each of the following variants.
B1: Caulobacter ParB omega fusion; a variant is named by its letters at X, in order, B8GW30 (parent)
chain: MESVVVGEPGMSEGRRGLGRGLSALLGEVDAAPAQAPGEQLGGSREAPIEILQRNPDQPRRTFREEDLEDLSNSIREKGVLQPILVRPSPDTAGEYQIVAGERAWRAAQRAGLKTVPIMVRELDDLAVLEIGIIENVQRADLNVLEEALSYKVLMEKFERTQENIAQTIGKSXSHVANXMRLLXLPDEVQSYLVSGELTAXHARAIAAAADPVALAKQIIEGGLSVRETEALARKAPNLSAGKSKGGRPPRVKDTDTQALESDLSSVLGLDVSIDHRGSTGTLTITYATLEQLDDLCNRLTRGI

# Variants of: B1
# ASSAY_NAME: one-hybrid fitness for binding NBS DNA (the Noc-binding site; scaled: cognate 1, non-cognate 0); higher = stronger binding
# CONDITION_NOTES: with NBS DNA site
Over roughly 81,000 sequences, “one-hybrid fitness for binding NBS DNA” has its median near -0.1; the highest 2% begin near 0.36. The list comes from a sample in which the highest values are over-represented; it also holds close analogues and randomly drawn sequences.

Field: example entries. Status: answers known.
{"VARIANT_ID": "QYRA", "one-hybrid fitness for binding NBS DNA": 0.558}
{"VARIANT_ID": "ILMW", "one-hybrid fitness for binding NBS DNA": "≤ 0.2"}

Requested field: one-hybrid fitness for binding NBS DNA. Item: `QTKA`
0.708

Requested field: one-hybrid fitness for binding NBS DNA. Item: `QTIA`
0.224

Requested field: one-hybrid fitness for binding NBS DNA. Item: `QLER`
0.266

Requested field: one-hybrid fitness for binding NBS DNA. Item: `MVPG`
≤ 0.2

Requested field: one-hybrid fitness for binding NBS DNA. Item: `AYPY`
≤ 0.2

Requested field: one-hybrid fitness for binding NBS DNA. Item: `LTNG`
≤ 0.2

Requested field: one-hybrid fitness for binding NBS DNA. Item: `KICD`
≤ 0.2
